Experimental conditions: in toluene, 283.15 K
Readout type: solubility (mole fraction)
No unit in the answer, please; the number alone is enough.

Query: Which solubility (mole fraction) value belongs to c1ccc2oc(CSCc3nc4ccccc4o3)nc2c1 ?
Response: 0.00176

###

Experimental conditions: in chlorobenzene, 292.95 K
Readout type: solubility (mole fraction)
No unit in the answer, please; the number alone is enough.

Query: Which solubility (mole fraction) value belongs to c1ccc2oc(CSCc3nc4ccccc4o3)nc2c1 ?
Response: 0.0119

###

Experimental conditions: in toluene, 308.15 K
Readout type: solubility (mole fraction)
No unit in the answer, please; the number alone is enough.

Query: Which solubility (mole fraction) value belongs to c1ccc2oc(CSCc3nc4ccccc4o3)nc2c1 ?
Response: 0.024

###

Experimental conditions: in toluene, 278.15 K
Readout type: solubility (mole fraction)
No unit in the answer, please; the number alone is enough.

Query: Which solubility (mole fraction) value belongs to c1ccc2oc(CSCc3nc4ccccc4o3)nc2c1 ?
Response: 0.000971

###

Experimental conditions: in o-xylene, 298.15 K
Readout type: solubility (mole fraction)
No unit in the answer, please; the number alone is enough.

Query: Which solubility (mole fraction) value belongs to c1ccc2oc(CSCc3nc4ccccc4o3)nc2c1 ?
Response: 0.00203

###

Experimental conditions: in ethanol, 293.15 K
Readout type: solubility (mole fraction)

Query: Which solubility (mole fraction) value belongs to c1ccc2oc(CSCc3nc4ccccc4o3)nc2c1 ?
Response: 0.0279

###

Experimental conditions: in chlorobenzene, 303.25 K
Readout type: solubility (mole fraction)
No unit in the answer, please; the number alone is enough.

Query: Which solubility (mole fraction) value belongs to c1ccc2oc(CSCc3nc4ccccc4o3)nc2c1 ?
Response: 0.0205

###

Experimental conditions: in ethanol, 291.15 K
Readout type: solubility (mole fraction)
No unit in the answer, please; the number alone is enough.

Query: Which solubility (mole fraction) value belongs to c1ccc2oc(CSCc3nc4ccccc4o3)nc2c1 ?
Response: 0.0236

###

Experimental conditions: in o-xylene, 303.15 K
Readout type: solubility (mole fraction)
No unit in the answer, please; the number alone is enough.

Query: Which solubility (mole fraction) value belongs to c1ccc2oc(CSCc3nc4ccccc4o3)nc2c1 ?
Response: 0.00305

###

Experimental conditions: in o-xylene, 313.15 K
Readout type: solubility (mole fraction)
No unit in the answer, please; the number alone is enough.

Query: Which solubility (mole fraction) value belongs to c1ccc2oc(CSCc3nc4ccccc4o3)nc2c1 ?
Response: 0.00656

###

Experimental conditions: in ethanol, 295.55 K
Readout type: solubility (mole fraction)

Query: Which solubility (mole fraction) value belongs to c1ccc2oc(CSCc3nc4ccccc4o3)nc2c1 ?
Response: 0.0318

###

Experimental conditions: in chlorobenzene, 283.15 K
Readout type: solubility (mole fraction)
No unit in the answer, please; the number alone is enough.

Query: Which solubility (mole fraction) value belongs to c1ccc2oc(CSCc3nc4ccccc4o3)nc2c1 ?
Response: 0.00684

###

Experimental conditions: in toluene, 298.15 K
Readout type: solubility (mole fraction)
No unit in the answer, please; the number alone is enough.

Query: Which solubility (mole fraction) value belongs to c1ccc2oc(CSCc3nc4ccccc4o3)nc2c1 ?
Response: 0.00861

###

Experimental conditions: in ethanol, 300.25 K
Readout type: solubility (mole fraction)

Query: Which solubility (mole fraction) value belongs to c1ccc2oc(CSCc3nc4ccccc4o3)nc2c1 ?
Response: 0.0435
